Test: Therapeutic index, ratio of IC50 for human NHDF cells to IC50 for human SW620 cells after 72 hrs
Assay type: toxicity
Settings: NHDF cells versus SW620 cells, read-out: Ratio IC50
For each of the compounds below, state its selectivity ratio at 72 h.

Solved entries:
- compoundStructure: "COc1cc(/C=C2\\CCC/C(=C\\c3ccccc3Br)C2=O)cc(OC)c1OC"
  selectivity ratio at 72 h: "3 to 5"
- compoundStructure: "COc1cccc(/C=C2\\CCC/C(=C\\c3cc(OC)c(OC)c(OC)c3)C2=O)c1OC"
  selectivity ratio at 72 h: "3.9 to 7.2"
- compoundStructure: "COc1cc(/C=C2\\CCC/C(=C\\c3ccc(F)c(F)c3)C2=O)cc(OC)c1OC"
  selectivity ratio at 72 h: "2.7 to 6.5"
- compoundStructure: "COc1cc(/C=C2\\CCC/C(=C\\c3ccccc3F)C2=O)cc(OC)c1OC"
  selectivity ratio at 72 h: "1.8 to 2.7"
- compoundStructure: "COc1cc(/C=C2\\CCC/C(=C\\c3ccc(O)c(Cl)c3)C2=O)cc(OC)c1OC"
  selectivity ratio at 72 h: "1.8 to 9.9"

For each entry beneath this line, provide reported selectivity ratio at 72 h.
1. COc1cc(/C=C2\CCC/C(=C\c3ccc(O)c(O)c3)C2=O)cc(OC)c1OC
2. COc1ccccc1/C=C1\CCC/C(=C\c2cc(OC)c(OC)c(OC)c2)C1=O

1. 1.1 to 3.3
2. 3.6 to 7.2

Could you report selectivity ratio at 72 h for every entry in the following list?
1. COc1cc(/C=C2\CCC/C(=C\c3cccc(O)c3)C2=O)cc(OC)c1OC
2. COc1ccc(/C=C2\CCC/C(=C\c3cc(OC)c(OC)c(OC)c3)C2=O)cc1OC

1: 3.3 to 5.3; 2: 3.1 to 4.5

* * *

Hi there, I'd appreciate the recorded selectivity ratio at 72 h for every entry that follows.
Assay: Therapeutic index, ratio of IC50 for human NHDF cells to IC50 for human NCI-H508 cells after 72 hrs
Assay type: toxicity
Conditions: NHDF cells versus NCI-H508 cells, read-out: Ratio IC50

Observe how each entry below is paired with its result.
- compoundStructure: "COc1cc(/C=C2\\CCC/C(=C\\c3cccc(O)c3)C2=O)cc(OC)c1OC"
  result: "3.3 to 5.3"
- compoundStructure: "COc1ccccc1/C=C1\\CCC/C(=C\\c2cc(OC)c(OC)c(OC)c2)C1=O"
  result: "3.6 to 7.2"
- compoundStructure: "COc1cc(/C=C2\\CCC/C(=C\\c3ccccc3Br)C2=O)cc(OC)c1OC"
  result: "3 to 5"

Check the records and state selectivity ratio at 72 h for COc1cccc(/C=C2\CCC/C(=C\c3cc(OC)c(OC)c(OC)c3)C2=O)c1OC
3.9 to 7.2

* * *

I'd be grateful if you could share measured selectivity ratio at 72 h for these entries.
Assay: Therapeutic index, ratio of IC50 for human NHDF cells to IC50 for human T84 cells after 72 hrs
Type: toxicity
Settings: NHDF cells versus T84 cells, read-out: Ratio IC50

Recorded results for 5 compounds are shown here.
- compoundStructure: "COc1cc(/C=C2\\CCC/C(=C\\c3ccccc3F)C2=O)cc(OC)c1OC"
  selectivity ratio at 72 h: "1.8 to 2.7"
- compoundStructure: "COc1cc(/C=C2\\CCC/C(=C\\c3ccc(F)c(F)c3)C2=O)cc(OC)c1OC"
  selectivity ratio at 72 h: "2.7 to 6.5"
- compoundStructure: "COc1ccccc1/C=C1\\CCC/C(=C\\c2cc(OC)c(OC)c(OC)c2)C1=O"
  selectivity ratio at 72 h: "3.6 to 7.2"
- compoundStructure: "COc1cc(/C=C2\\CCC/C(=C\\c3ccc(O)c(O)c3)C2=O)cc(OC)c1OC"
  selectivity ratio at 72 h: "1.1 to 3.3"
- compoundStructure: "COc1ccc(/C=C2\\CCC/C(=C\\c3cc(OC)c(OC)c(OC)c3)C2=O)cc1OC"
  selectivity ratio at 72 h: "3.1 to 4.5"

Value sought for every listed compound: selectivity ratio at 72 h.
1. COc1cc(/C=C2\CCC/C(=C\c3ccccc3Br)C2=O)cc(OC)c1OC
2. COc1cccc(/C=C2\CCC/C(=C\c3cc(OC)c(OC)c(OC)c3)C2=O)c1OC
3. COc1cc(/C=C2\CCC/C(=C\c3cccc(O)c3)C2=O)cc(OC)c1OC
4. COc1cc(/C=C2\CCC/C(=C\c3ccc(O)c(Cl)c3)C2=O)cc(OC)c1OC

1: 3 to 5; 2: 3.9 to 7.2; 3: 3.3 to 5.3; 4: 1.8 to 9.9

* * *

So I've got a bunch of molecules here, and I need their pIC50 values.
System: NCI-H508
Test: Antiproliferative activity against human NCI-H508 cells assessed as reduction in cell viability after 72 hrs by MTT assay
Format: functional, cell-based
Conditions: NCI-H508, 72 h
Give bare numbers, as −log10 of the molar value.

- molecule: "COc1ccccc1/C=C1\\CCC/C(=C\\c2cc(OC)c(OC)c(OC)c2)C1=O"
  pIC50: 5.66
- molecule: "COc1cc(/C=C2\\CCC/C(=C\\c3ccccc3F)C2=O)cc(OC)c1OC"
  pIC50: 5.70
- molecule: "COc1ccc(/C=C2\\CCC/C(=C\\c3cc(OC)c(OC)c(OC)c3)C2=O)cc1OC"
  pIC50: 5.77
- molecule: "COc1cc(/C=C2\\CCC/C(=C\\c3ccc(O)c(Cl)c3)C2=O)cc(OC)c1OC"
  pIC50: 5.40
- molecule: "COc1cc(/C=C2\\CCC/C(=C\\c3ccccc3Br)C2=O)cc(OC)c1OC"
  pIC50: 5.57
- molecule: "COc1cc(/C=C2\\CCC/C(=C\\c3cccc(O)c3)C2=O)cc(OC)c1OC"
  pIC50: 5.25
- molecule: "COc1cc(/C=C2\\CCC/C(=C\\c3ccc(F)c(F)c3)C2=O)cc(OC)c1OC"
  pIC50: 5.40
- molecule: "COc1cc(/C=C2\\CCC/C(=C\\c3ccc(O)c(O)c3)C2=O)cc(OC)c1OC"
  pIC50: 5.15

Hi team, please reply with pIC50 for each item in this list.
1. COc1cccc(/C=C2\CCC/C(=C\c3cc(OC)c(OC)c(OC)c3)C2=O)c1OC
2. O=c1[nH]cc(F)c(=O)[nH]1 [FLUOROURACIL]

1. 5.32
2. 5.06

* * *

System: NHDF
Assay: Cytotoxicity against human NHDF cells assessed as reduction in cell viability
Format: cell-based
Record form. Attribute: pIC50. Fill in for each entry.
Give bare numbers, as −log10 of the molar value.

The cases that follow already have their pIC50 on record.
- compoundStructure: "COc1cc(/C=C2\\CCC/C(=C\\c3cccc(O)c3)C2=O)cc(OC)c1OC"
  assayTarget: "NHDF"
  pIC50: 4.60
- compoundStructure: "COc1cc(/C=C2\\CCC/C(=C\\c3ccccc3F)C2=O)cc(OC)c1OC"
  assayTarget: "NHDF"
  pIC50: 5.40
- compoundStructure: "COc1cccc(/C=C2\\CCC/C(=C\\c3cc(OC)c(OC)c(OC)c3)C2=O)c1OC"
  assayTarget: "NHDF"
  pIC50: 4.73

Now let's try a different one.
Determine from records and report pIC50 for COc1cc(/C=C2\CCC/C(=C\c3ccc(O)c(O)c3)C2=O)cc(OC)c1OC
5.05

* * *

Could you please report measured IC50 for the items listed next?
Tested on: RKO
Experiment: Antiproliferative activity against human RKO cells assessed as reduction in cell viability after 72 hrs by MTT assay
Assay type: functional, cell-based
Numbers only, in µM.

- compoundStructure: "COc1ccc(/C=C2\\CCC/C(=C\\c3cc(OC)c(OC)c(OC)c3)C2=O)cc1OC"
  unitName: "µM"
  IC50: 1.3
- compoundStructure: "COc1cc(/C=C2\\CCC/C(=C\\c3ccc(O)c(Cl)c3)C2=O)cc(OC)c1OC"
  unitName: "µM"
  IC50: 0.7
- compoundStructure: "COc1cc(/C=C2\\CCC/C(=C\\c3ccc(O)c(O)c3)C2=O)cc(OC)c1OC"
  unitName: "µM"
  IC50: 3.1
- compoundStructure: "COc1cc(/C=C2\\CCC/C(=C\\c3ccccc3Br)C2=O)cc(OC)c1OC"
  unitName: "µM"
  IC50: 2.5
- compoundStructure: "COc1cc(/C=C2\\CCC/C(=C\\c3ccccc3F)C2=O)cc(OC)c1OC"
  unitName: "µM"
  IC50: 1.5

Field: IC50. Fill in for each record below.
1. COc1cc(/C=C2\CCC/C(=C\c3ccc(F)c(F)c3)C2=O)cc(OC)c1OC
2. COc1cc(/C=C2\CCC/C(=C\c3cccc(O)c3)C2=O)cc(OC)c1OC
3. O=c1[nH]cc(F)c(=O)[nH]1
4. COc1cccc(/C=C2\CCC/C(=C\c3cc(OC)c(OC)c(OC)c3)C2=O)c1OC

2.2
6.5
2.9
3.6

// fetch IC50 given entry COc1ccccc1/C=C1\CCC/C(=C\c2cc(OC)c(OC)c(OC)c2)C1=O
1.2
